Molecular target: caspase 6 (Homo sapiens, UniProt P55212)
Construct: purchased Biomol International, UK
Sequence (P55212 24-179 limits assumed): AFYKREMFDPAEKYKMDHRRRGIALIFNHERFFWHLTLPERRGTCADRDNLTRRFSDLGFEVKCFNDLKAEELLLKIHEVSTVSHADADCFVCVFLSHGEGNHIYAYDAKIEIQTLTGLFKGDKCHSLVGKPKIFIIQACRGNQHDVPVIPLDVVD
Sequence (P55212 194-293 limits assumed): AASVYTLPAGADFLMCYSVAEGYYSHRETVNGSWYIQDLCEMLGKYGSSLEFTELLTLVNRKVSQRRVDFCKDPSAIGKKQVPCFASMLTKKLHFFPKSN
Assay: Fluorimetric in vitro caspase inhibition assay (7-AMC), caspase 6
Format: biochemical
Conditions: recombinant human caspase 6, 10 μM Ac-VEID-AMC; read-out: Caspase EC50 (nM), 1/6/8: caspase 6
RESULT_TYPE: EC50

Use these answered entries as a reference point.
[
  {
    "COMPOUND": "O=C1C(=O)N(Cc2ccc(F)cc2)c2ccc(S(=O)(=O)N3CCC[C@H]3COc3ccc(F)cc3)cc21 [Compound 22]",
    "EC50": "> 5000 nM"
  },
  {
    "COMPOUND": "O=C1C(=O)N(Cc2ccc(F)cc2)c2ccc(S(=O)(=O)N3CCC[C@H]3COc3ccccc3)cc21 [Compound 15, reference compound]",
    "EC50": "> 5000 nM"
  },
  {
    "COMPOUND": "O=C1C(=O)N(Cc2ccc(F)cc2)c2ccc(S(=O)(=O)N3CCC[C@H]3COc3cc(F)cc(F)c3)cc21 [Compound 3]",
    "EC50": "> 5000 nM"
  }
]

Kindly consider the entry below.
Which EC50 is reported for this compound? O=C1C(=O)N(Cc2ccc(F)cc2)c2ccc(S(=O)(=O)N3CCC[C@H]3COC3CCOCC3)cc21 [Compound 4]
> 5000 nM
